Each recorded value in this set is attributed to patent US20080293712A1.

biological target: PKA (Homo sapiens, UniProt P17612); assay: PKA kinase inhibition, Z'-LYTE FRET assay; assay type: biochemical; details: 20 μM ATP
So I've got a bunch of molecules here, and I need their IC50 values.

For the molecule COc1cc2ncc3c(N)nc(-c4cncc(OC[C@@H](N)CN5CCc6ccccc65)c4)cc3c2cc1OC , what IC50 is on record? < 0.032 µM

For the molecule CC(C)(C)OC(=O)N[C@H](COc1cncc(-c2cc3c(cnc4cc(C#CCCn5ccnc5)ccc43)c(N)n2)c1)Cc1ccccc1 , what IC50 is on record? > 20 µM

For the molecule COc1cc2ncc3c(N)nc(-c4cncc(O[C@H]5CCCNC5)c4)cc3c2cc1OC , what IC50 is on record? > 4 µM

For the molecule COc1cc2c(cc1OCC1CCN(C)CC1)ncc1c(N)nc(-c3cnccn3)cc12 , what IC50 is on record? > 20 µM

###

Molecular target: PDK-1 (Homo sapiens)
Sequence (O15530 1-556): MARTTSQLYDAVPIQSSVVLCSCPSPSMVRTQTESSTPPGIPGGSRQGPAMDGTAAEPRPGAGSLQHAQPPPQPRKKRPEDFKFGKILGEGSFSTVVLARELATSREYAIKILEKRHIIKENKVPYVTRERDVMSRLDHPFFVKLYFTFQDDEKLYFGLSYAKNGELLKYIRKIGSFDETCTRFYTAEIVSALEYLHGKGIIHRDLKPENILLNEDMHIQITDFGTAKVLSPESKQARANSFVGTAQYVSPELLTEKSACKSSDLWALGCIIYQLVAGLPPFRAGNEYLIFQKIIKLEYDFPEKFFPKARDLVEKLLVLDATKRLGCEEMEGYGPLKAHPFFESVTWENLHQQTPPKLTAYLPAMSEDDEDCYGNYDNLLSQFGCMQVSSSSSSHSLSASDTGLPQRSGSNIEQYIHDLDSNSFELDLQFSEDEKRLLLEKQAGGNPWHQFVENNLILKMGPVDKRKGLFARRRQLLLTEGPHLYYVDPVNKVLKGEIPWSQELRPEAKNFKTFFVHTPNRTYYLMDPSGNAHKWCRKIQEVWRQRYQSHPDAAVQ
Test: PDK-1 kinase inhibition ELISA assay (phosphorylation of His6-tagged SGK1 S422D by PDK-1)
Format: biochemical
Conditions: PDK-1 ELISA, Table 11; read-out: Average IC50
So I've got a bunch of molecules here, and I need their IC50 values.
Supply the numeric figure in nM, leaving out any unit text.

For the molecule COc1cc2ncc3c(N)nc(-c4cncc(Nc5ccncc5)c4)cc3c2cc1OC , what IC50 is on record? 477

For the molecule COc1cc2ncc3c(N)nc(-c4cncc(OC[C@@H](N)CNCCc5ccncc5)c4)cc3c2cc1OC , what IC50 is on record? 24

For the molecule COCCOc1cc2ncc3c(N)nc(Cl)cc3c2cc1OC , what IC50 is on record? 2620

For the molecule COc1cc2ncc3c(N)nc(-c4cncc(OC[C@@H](N)COc5nc6ccccc6[nH]5)c4)cc3c2cc1OC , what IC50 is on record? 2

For the molecule COc1cc2ncc3c(N)nc(-c4cncc(OC[C@@H](N)COc5nc6ccccc6s5)c4)cc3c2cc1OC , what IC50 is on record? 6

For the molecule COc1cc2ncc3c(N)nc(-c4cncc(OC[C@@H](N)CN5CCc6ccccc65)c4)cc3c2cc1OC , what IC50 is on record? 8

For the molecule COCCOc1cc2ncc3c(N)nc(N(C)CC4OCCO4)cc3c2cc1OC , what IC50 is on record? 2680

For the molecule COCCOc1cc2ncc3c(N)nc(N4CCCCC4C)cc3c2cc1OC (stereo not drawn) , what IC50 is on record? 2450

For the molecule CCNCCOc1cncc(-c2cc3c(cnc4cc(OC)c(OC)cc43)c(N)n2)c1 , what IC50 is on record? 46.5

For the molecule CC[C@@H](N)COc1cncc(-c2cc3c(cnc4cc(OC)c(OC)cc43)c(N)n2)c1 , what IC50 is on record? 2

For the molecule CCOc1cc2ncc3c(N)nc(-n4ccnc4)cc3c2cc1N , what IC50 is on record? 46

For the molecule COc1cc2ncc3c(N)nc(-c4cncc(O[C@H]5CCCNC5)c4)cc3c2cc1OC , what IC50 is on record? 84

For the molecule COc1cc2ncc3c(N)nc(-c4cncc(OC[C@@H](N)CSc5ccc(Cl)cc5Cl)c4)cc3c2cc1OC , what IC50 is on record? 12

For the molecule COCCOc1cc2ncc3c(N)nc(N4CCC(C)CC4)cc3c2cc1OC , what IC50 is on record? 2440

For the molecule COc1cc2ncc3c(N)nc(-c4cncc(Nc5ccccc5)c4)cc3c2cc1OC , what IC50 is on record? 283

For the molecule COc1cc2ncc3c(N)nc(-c4cncc(OC[C@@H](N)CNCC5(c6ccccc6)CC5)c4)cc3c2cc1OC , what IC50 is on record? 32

###

biological target: PDK-1 (Homo sapiens, UniProt O15530); assay: PDK-1 kinase inhibition ELISA assay (phosphorylation of His6-tagged SGK1 S422D by PDK-1); type: biochemical; conditions: PDK-1 ELISA, Table 11; read-out: Average IC50
parameter: IC50 (nM)
Supply the numeric figure in nM, leaving out any unit text.

// fetch PDK-1 (Homo sapiens, UniProt O15530) IC50 for COc1cc2ncc3c(N)nc(-c4cncc(OC[C@@H](N)CN5CCN(c6ccccn6)CC5)c4)cc3c2cc1OC [Ib-20] 66

// fetch PDK-1 (Homo sapiens, UniProt O15530) IC50 for COc1cc2ncc3c(N)nc(-c4cncc(CCC5(N)CCCCC5)c4)cc3c2cc1OC [Ib-258] 27

// fetch PDK-1 (Homo sapiens, UniProt O15530) IC50 for COc1cc2ncc3c(N)nc(-c4cncc(OC[C@@H](N)COc5ncc(Cl)cc5Cl)c4)cc3c2cc1OC [Ib-153] 4

###

biological target: PDK-1 (Homo sapiens, UniProt O15530); assay: PDK-1 kinase inhibition ELISA assay (phosphorylation of His6-tagged SGK1 S422D by PDK-1); assay type: biochemical; conditions: PDK-1 ELISA, Table 11; read-out: Average IC50
So I've got a bunch of molecules here, and I need their pIC50 values.
Entry type: numeric. Quantity: pIC50, the -log10 of concentration in molar units.

For the molecule COc1cc2ncc3c(N)nc(-c4cncc(OC[C@@H](N)CNc5cccc(F)c5)c4)cc3c2cc1OC , what pIC50 is on record? 8.40

For the molecule COc1cc2ncc3c(N)nc(-c4cncc(OC[C@@H](N)Cc5c[nH]c6ccccc56)c4)cc3c2cc1OC , what pIC50 is on record? 8.22

For the molecule Nc1nc(-c2cncc(OC[C@@H](N)Cc3ccccc3)c2)cc2c1cnc1ccccc12 , what pIC50 is on record? 6.98

For the molecule COc1cc2c(cc1OCCCN1CCCC1)ncc1c(N)nc(-n3ccnc3)cc12 , what pIC50 is on record? 6.30

For the molecule COc1cc2ncc3c(N)nc(-c4cncc(OC[C@@H](N)CNC5CCOCC5)c4)cc3c2cc1OC , what pIC50 is on record? 7.59

For the molecule COc1cc2c(cc1N1CCOCC1)ncc1c(N)nc(-c3cncc(OC[C@@H](N)Cc4ccccc4)c3)cc12 , what pIC50 is on record? 7.23

For the molecule COCCOc1cc2ncc3c(N)nc(N4CCC[C@@H]4COC)cc3c2cc1OC , what pIC50 is on record? 5.63

For the molecule COc1cc2ncc3c(N)nc(-c4cncc(OC[C@@H](N)CN(C)c5cccc(Cl)c5)c4)cc3c2cc1OC , what pIC50 is on record? 7.40

For the molecule COCCOc1cc2ncc3c(N)nc(-n4cnc(-c5ccccc5)c4)cc3c2cc1OC , what pIC50 is on record? 5.69

For the molecule COc1cc2ncc3c(N)nc(-c4cncc(OC[C@H](N)Cc5c[nH]c6ccccc56)c4)cc3c2cc1OC , what pIC50 is on record? 7.82

For the molecule COc1cc2ncc3c(N)nc(-c4cncc(OC[C@@H](N)CNC5CCC5)c4)cc3c2cc1OC , what pIC50 is on record? 7.20

For the molecule COc1cc2ncc3c(N)nc(-c4cncc(O[C@H]5CCNC5)c4)cc3c2cc1OC , what pIC50 is on record? 7.19

For the molecule Nc1nc(-n2ccnc2)cc2c1cnc1cc(/C=C/CCN3CCCC3)ccc12 , what pIC50 is on record? 7.01

For the molecule COc1cc2ncc3c(N)nc(-c4cncc(OC[C@@H](N)CN(C)Cc5cccc(F)c5)c4)cc3c2cc1OC , what pIC50 is on record? 8.30

For the molecule COc1cc2ncc3c(N)nc(-c4cncc(OC[C@@H](N)CN5CCNC(=O)C5)c4)cc3c2cc1OC , what pIC50 is on record? 7.74

For the molecule COc1cc2ncc3c(N)nc(-c4cncc(OC[C@@H](N)CNc5ccc(C)c(F)c5)c4)cc3c2cc1OC , what pIC50 is on record? 7.66

For the molecule COc1cc2c(cc1OCCCN1CCCC1)ncc1c(N)nc(-c3cccnc3)cc12 , what pIC50 is on record? 6.92

For the molecule COc1cc2ncc3c(N)nc(-c4cncc(OC[C@@H](N)CNC5CCCC5)c4)cc3c2cc1OC , what pIC50 is on record? 7.04

For the molecule CCCCNC(=N)c1cncc(-c2cc3c(cnc4cc(OC)c(OC)cc43)c(N)n2)c1 , what pIC50 is on record? 6.00

For the molecule COc1cc2ncc3c(N)nc(-c4cncc(OC[C@@H](N)CNC(C)(C)c5ccccc5)c4)cc3c2cc1OC , what pIC50 is on record? 8.15

For the molecule COc1cc2ncc3c(N)nc(-c4cncc(Oc5cccc(N)n5)c4)cc3c2cc1OC , what pIC50 is on record? 6.82

For the molecule CCN1CCN(CC/C=C/c2ccc3c(c2)ncc2c(N)nc(-n4ccnc4)cc23)CC1 , what pIC50 is on record? 6.94

For the molecule COc1cc2ncc3c(N)nc(-c4cccnc4C)cc3c2cc1OC , what pIC50 is on record? 6.27

For the molecule COc1cc2ncc3c(N)nc(-c4cncc(OC[C@H](N)CN5Cc6ccccc6C5)c4)cc3c2cc1OC , what pIC50 is on record? 7.47

For the molecule Nc1nc(-n2ccnc2)cc2c1cnc1cc(Br)ccc12 , what pIC50 is on record? 6.28

For the molecule COc1cc2ncc3c(N)nc(-c4cncc(OC[C@@H](N)COc5nccs5)c4)cc3c2cc1OC , what pIC50 is on record? 8.52

For the molecule COc1cc2ncc3c(N)nc(-c4ccc(Br)c(F)c4)cc3c2cc1OC , what pIC50 is on record? 6.00

For the molecule Nc1nc(-n2ccnc2)cc2c1cnc1cc(C#CCCn3ccnc3)ccc12 , what pIC50 is on record? 6.75

For the molecule COc1cc2ncc3c(N)nc(-c4cncc(OC[C@@H](N)CN(C)Cc5ccccc5)c4)cc3c2cc1OC , what pIC50 is on record? 8.22

For the molecule COc1cc2ncc3c(N)nc(-c4cncc(OC[C@@H](N)CNC(C)(C)c5ccccn5)c4)cc3c2cc1OC , what pIC50 is on record? 8.40

For the molecule COc1cc2ncc3c(N)nc(-c4cncc(OC[C@@H](N)CN5CCN(c6ccncc6)CC5)c4)cc3c2cc1OC , what pIC50 is on record? 7.38

For the molecule COc1cc2ncc3c(N)nc(-c4cncc(OC[C@@H](N)CSc5nccn5C)c4)cc3c2cc1OC , what pIC50 is on record? 8.52
